TEST TARGET: Histone-lysine N-methyltransferase EHMT2 (Homo sapiens) (UniProt Q96KQ7)
Sequence (Q96KQ7 913-1193 limits assumed): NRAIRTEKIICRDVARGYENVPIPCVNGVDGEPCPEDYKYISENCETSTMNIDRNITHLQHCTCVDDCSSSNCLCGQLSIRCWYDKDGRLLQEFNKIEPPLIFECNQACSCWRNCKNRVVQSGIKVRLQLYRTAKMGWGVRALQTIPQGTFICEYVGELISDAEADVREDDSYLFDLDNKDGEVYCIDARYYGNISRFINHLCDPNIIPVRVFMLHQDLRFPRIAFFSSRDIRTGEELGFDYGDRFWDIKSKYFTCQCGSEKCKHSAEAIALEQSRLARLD
ASSAY METHOD TEXT: qHTS Assay for Inhibitors of Histone Lysine Methyltransferase G9a; note: nearly all actives have a fitted effect of over 75% in size
PARTICULARS: G9a H3K9 monomethylation, AlphaScreen, 2 h; series mostly up to 59 µM
Screen size: about 350,000 compounds; about 31,000 (8.9%) were called active. Roughly 15% stayed inconclusive and do not appear here. Calls come from the whole dose curve; as a rule, active = well fitted inhibition curve with a large enough effect; inconclusive = small, poorly fitted or top-dose-only effect; inactive = no such curve, though single readings can be large or run the other way. For the sample, actives were picked, then their nearest neighbours and some compounds at random.
In this exercise, the only acceptable responses are True (active), False (inactive)

The examples below pair each entry with its known result.
molecule=COC(=O)c1c(-c2ccc(C)cc2)csc1N class_assignment=True
molecule=COc1cccc(NC(=S)NCc2ccco2)c1 class_assignment=False
molecule="CC(=O)N1c2ccc(S(=O)(=O)N3CCCC(C(=O)NCc4ccc(Cl)cc4)C3)cc2CC1C (stereo not drawn)" class_assignment=False
molecule=CCOc1ccc(OCC)c(NS(=O)(=O)c2ccc3[nH]c(=O)ccc3c2)c1 class_assignment=False
molecule=COc1ccccc1OCCCn1c(-c2ccc(Cl)cc2)nc2ccccc2c1=O class_assignment=False
molecule=COc1ccc(C)cc1NC(=O)CCc1c(C)nn(-c2ccc(N3CCOCC3)nn2)c1C class_assignment=False
molecule=S=C(NCc1ccco1)NCc1ccccc1Cl class_assignment=False
molecule=CCOc1ccc(-c2nonc2NC(=O)c2oc3ccc(CC)cc3c2C)cc1 class_assignment=False

Ask: How did this test come out for Cc1ccccc1-c1n[nH]c(=S)n1/N=C/c1ccc(-c2ccccc2Br)o1 ?
Result: True

Ask: One more molecule: O=C(Nc1ccc(Br)cc1)c1cc2nc(-c3ccccc3)cc(-c3ccccc3)n2n1
Result: False

Ask: One more molecule: O=C(O)c1ccccc1CSc1nc2ccccc2s1
Result: True

###

TEST TARGET: Histone-lysine N-methyltransferase EHMT2 (Homo sapiens)
ASSAY METHOD TEXT: qHTS Assay for Inhibitors of Histone Lysine Methyltransferase G9a; note: nearly all actives have a fitted effect of over 75% in size
PARTICULARS: G9a H3K9 monomethylation, AlphaScreen, 2 h; series mostly up to 59 µM
In all, about 350,000 compounds went through this assay and about 31,000 (8.9%) were called active. Roughly 15% stayed inconclusive and do not appear here. Calls follow the shape of the dose curve; as a rule, active = well fitted inhibition curve with a large enough effect; inconclusive = small, poorly fitted or top-dose-only effect; inactive = no such curve, though single readings can be large or run the other way. Shown is part of a subset that was picked to be rich in actives.
In this exercise, the only acceptable responses are active, inactive

The examples below pair each entry with its known result.
compound=Cc1ccc(NC(=O)c2oc3ccc(S(=O)(=O)N4CCCCC4)cc3c2C)cc1Cl class_assignment=inactive
compound="O=C(CCNS(=O)(=O)c1ccc(Br)cc1)NCC1CCCO1 (stereo not given)" class_assignment=inactive
compound="COc1ccccc1N(C(=O)Cn1nnc2ccccc21)C(C(=O)NCc1ccco1)c1ccc(C)o1 (stereo not given)" class_assignment=active
compound="Cc1ccsc1CN(C(=O)c1oc2ccc(Br)cc2c1C)C1CCS(=O)(=O)C1 (stereo not given)" class_assignment=inactive
compound="COc1ccc(OC)c(S(=O)(=O)N2CCCC(C(=O)N3CCC(C(N)=O)CC3)C2)c1 (stereo not given)" class_assignment=inactive

Ask: How did this test come out for CCC1(CC)NC(=O)N(CC(=O)OCC(=O)c2cc(C)c(C)cc2C)C1=O ?
Result: inactive

Ask: One more compound: COc1ccc(CC(=O)NC2CCSc3ccccc32)cc1OC (stereo not given)
Result: inactive

Ask: One more compound: Cc1ccc(C(C(=O)NCc2ccco2)N(CC2CCCO2)C(=O)Cn2nnc3ccccc32)cc1 (stereo not given)
Result: inactive

Ask: One more compound: CCOc1cc(C(=O)Nc2nnc3n2CCS3)cc(OCC)c1OCC
Result: inactive

Ask: One more compound: COc1ccc2cc(C(=O)NCC3CCCO3)[nH]c2c1 (stereo not given)
Result: inactive

###

TEST TARGET: Histone-lysine N-methyltransferase EHMT2 (Homo sapiens)
ASSAY METHOD TEXT: qHTS Assay for Inhibitors of Histone Lysine Methyltransferase G9a; note: nearly all actives have a fitted effect of over 75% in size
PARTICULARS: G9a H3K9 monomethylation, AlphaScreen, 2 h; series mostly up to 59 µM
Screen size: about 350,000 compounds; about 31,000 (8.9%) were called active. Not shown: some 15% with an inconclusive outcome. Calls come from the whole dose curve; as a rule, active = well fitted inhibition curve with a large enough effect; inconclusive = small, poorly fitted or top-dose-only effect; inactive = no such curve, though single readings can be large or run the other way. Only a selection was taken, and actives are over-represented in it overall.
In this exercise, the only acceptable responses are Y for active, N for inactive

The examples below pair each entry with its known result.
molecule="O=C(c1ccc(C(F)(F)F)cc1)C1CCCN(C(=O)c2csnn2)C1 (stereo unspecified)" class_assignment=N
molecule=CC(=O)Cc1nsc(NC(=O)c2ccc(Cl)cc2Cl)n1 class_assignment=N
molecule=CC(=O)Cc1nsc(NC(=O)c2csc3c2CCCC3)n1 class_assignment=Y
molecule="COCC(=O)N1CCCC(C(=O)c2ccc(C(F)(F)F)cc2)C1 (stereo unspecified)" class_assignment=N
molecule=CC(=O)N(Cc1cc(=O)[nH]c2ccccc12)c1ccc(C)cc1C class_assignment=Y

Now take the following molecule into account.
Ask: How did this test come out for Cc1ccc(S(=O)(=O)N2CCCCC2)cc1C(=O)N(C)CC(=O)Nc1cccc(F)c1 ?
Result: N

###

TEST TARGET: Histone-lysine N-methyltransferase EHMT2 (Homo sapiens) (UniProt Q96KQ7)
ASSAY METHOD TEXT: qHTS Assay for Inhibitors of Histone Lysine Methyltransferase G9a; note: nearly all actives have a fitted effect of over 75% in size
PARTICULARS: G9a H3K9 monomethylation, AlphaScreen, 2 h; series mostly up to 59 µM
Out of some 350,000 compounds screened, about 31,000 (8.9%) were called active. Inconclusive results (about 15%) are left out. Calls come from the whole dose curve; as a rule, active = well fitted inhibition curve with a large enough effect; inconclusive = small, poorly fitted or top-dose-only effect; inactive = no such curve, though single readings can be large or run the other way. Many of the other results were omitted from the sample, so actives are more common in it than they were.
In this exercise, the only acceptable responses are TRUE for active, FALSE for inactive

The examples below pair each entry with its known result.
compound=S=C(NC1CCCCC1)NN1CCOCC1 class_assignment=TRUE
compound="COc1ccc(CN2C(=O)C(NC(=O)c3cccc(C)c3)(C(F)(F)F)N=C2c2ccccc2)cc1 (configuration not stated)" class_assignment=FALSE
compound=CCN(CC)C(=O)CSc1nc2ccsc2c(=O)n1Cc1ccccc1Cl class_assignment=FALSE
compound=CSc1ccccc1NC(=O)COC(=O)CCCOc1ccc(C)cc1 class_assignment=FALSE
compound=Cc1ccc(-n2nc(-c3ccco3)cc2C(=O)NCc2cccnc2)cc1 class_assignment=TRUE
compound=CCCCc1cc(=O)oc2cc(C)cc(OCc3nn[nH]n3)c12 class_assignment=FALSE
compound=COc1ccc(S(=O)(=O)N2CCOCC2)cc1C(=O)NC1CCCCC1 class_assignment=FALSE
compound=Cc1cccc(C)c1Nc1nnc(SCC(=O)Nc2sccc2C#N)s1 class_assignment=FALSE

Ask: How did this test come out for Cc1ccc(S(=O)(=O)c2nnn3c2nc(N2CCN(c4ccccc4F)CC2)c2cc(Cl)ccc23)cc1C ?
Result: FALSE

Ask: One more compound: COc1ccc(OCCNC(=O)c2cc(C3CC3)nc3c2cnn3C(C)C)cc1
Result: FALSE

Ask: One more compound: Cc1ccc(NC(=O)CCCNC(=O)c2ccc(Cl)cc2)cc1S(=O)(=O)N1CCOCC1
Result: FALSE

Ask: One more compound: Cc1ccc(C(=O)OCC(=O)Nc2ccc(Cl)cn2)cc1S(=O)(=O)N1CCOCC1
Result: FALSE

Ask: One more compound: COc1ccc(C=C(C#N)C#N)c(CSc2ccccn2)c1
Result: FALSE

Ask: One more compound: CC(C)(C)c1nc(NCC2CCCO2)c2nnn(Cc3ccccc3)c2n1 (configuration not stated)
Result: FALSE

Ask: One more compound: COc1ccc(-c2cc(C3CCN(c4ncccc4[N+](=O)[O-])CC3)[nH]n2)cc1
Result: TRUE

Ask: One more compound: CCOC(=O)c1c(NC(C)=O)c2c3c(sc2n1Cc1c(C)cc(C)cc1C)CCCC3
Result: FALSE

Ask: One more compound: COc1ccc(-c2nn3c(-c4ccccc4)nnc3s2)cc1OC
Result: TRUE

Ask: One more compound: COc1ccccc1C(=O)COC(=O)CSCC(=O)Nc1cc(C)on1
Result: FALSE

###

TEST TARGET: Histone-lysine N-methyltransferase EHMT2 (Homo sapiens)
ASSAY METHOD TEXT: qHTS Assay for Inhibitors of Histone Lysine Methyltransferase G9a; note: nearly all actives have a fitted effect of over 75% in size; note: potency is the fitted concentration of half-maximal effect
PARTICULARS: G9a H3K9 monomethylation, AlphaScreen, 2 h; series mostly up to 59 µM
Protocol: Methylated lysines, on the N-terminal tails of histone proteins serve as epigenetic markers to recruit factors that can then modify local chromatin structure to lead to functional consequences. […] Methylation of biotinylated-histone peptide is measured through specific antibody-based detection, in conjunction with streptavidin-coated donor and anti-IgG antibody-coated acceptor beads. […]
The whole screen tested about 350,000 compounds, of which about 31,000 (8.9%) were called active. Roughly 15% stayed inconclusive and do not appear here. This is one part of a sample in which actives are shown more often than they occur.
REPORTED PROPERTY: Potency

molecule=COc1ccc(S(=O)(=O)N2CCCCCC2)cc1C(=O)N(C)Cc1cccc(OC)c1OC reported_property=Potency value_measured=inactive
molecule=O=S(=O)(c1ccc2nc(NCc3ccccc3Cl)ccc2c1)N1CCCCC1 reported_property=Potency value_measured="7.94 µM (active)"
molecule=Cc1csc(NC(=O)C2=COCCO2)n1 reported_property=Potency value_measured=inactive
molecule=Cc1ccc(-c2csc(NC(=O)C3=COCCO3)n2)cc1C reported_property=Potency value_measured="56.2 µM (active)"
molecule="CCCn1c(=N)n(CC(O)COc2ccccc2OC)c2ccccc21 (stereo unspecified)" reported_property=Potency value_measured=inactive

With those in mind, consider the next molecule.
Ask: Request - read-out Potency | tested on Histone-lysine N-methyltransferase EHMT2 (Homo sapiens) | molecule CCOc1cccc(CNC(=O)c2ccc(N3CCCC3)c(NC(=O)Nc3ccccc3CC)c2)c1
Result: inactive
